B1: CPXM2 (parent)
chain: TASTKNCMVGYDMGATRCDFTLSK

Variants of: B1
procedure_summary: protein stability index of a GFP-peptide fusion (GPS, HEK-293T) (PSI 1-6); higher = more stable;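 further: lentivirally expressed fusions sorted by FACS into six bins by GFP to DsRed ratio, PSI derived from sequencing read proportions per bin multiplied by bin number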
conditions_used: c terminus: a fixed tail appended
Assign protein stability index to each entry below.
One number for each entry.

V9E | 3.33
T21N | 3.06
C7D | 4

Lab note: each variant below needs its protein stability index filled in.
1. T1E
2. T1P
3. T1Y
4. T16C
5. F20T
6. M13T
7. V9P

Data returned:
3.37
2.1
1.71
2.26
3.88
2.99
2.89

Please give protein stability index, item by item, for the list that follows.
1. T4R
2. T16I
3. L22G
4. K24V
5. K5D
6. A15S

Data returned:
1.91
1.6
3.48
2.78
3.25
1.68
